TARGET_OR_SYSTEM: 1-deoxy-D-xylulose 5-phosphate reductoisomerase (Mycobacterium smegmatis (strain ATCC 700084 / mc(2)155), UniProt A0QVH7)
Sequence (A0QVH7 whole entry): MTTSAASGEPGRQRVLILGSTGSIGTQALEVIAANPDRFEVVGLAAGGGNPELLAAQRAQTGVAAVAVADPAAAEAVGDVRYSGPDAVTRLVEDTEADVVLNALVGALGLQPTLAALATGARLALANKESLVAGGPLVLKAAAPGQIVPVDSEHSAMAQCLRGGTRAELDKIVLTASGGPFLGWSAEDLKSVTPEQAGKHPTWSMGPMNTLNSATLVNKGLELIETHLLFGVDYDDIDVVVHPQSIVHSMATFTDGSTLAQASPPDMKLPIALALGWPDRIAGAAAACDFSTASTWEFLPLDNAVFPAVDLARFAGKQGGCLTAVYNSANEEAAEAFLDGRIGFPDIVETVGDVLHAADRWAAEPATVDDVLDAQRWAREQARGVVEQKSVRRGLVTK
ASSAY_SUMMARY: Inhibition of Mycobacterium smegmatis DSM 43756 ATCC 19420 N-terminal his-tagged DXR expressed in XL1-blue Escherichia coli using NADPH and DXP as substrate preincubated for 2 mins […]
Parameters: species or system Mycolicibacterium smegmatis
Could you please report measured IC50 for the items listed next?
Return type: number; implicit unit nM.

Ask: Given the compound `O=C(CCCP(=O)(O)O)NO` , what is its reported IC50?
Result: 1480

Ask: Queued: `CC(=O)N(O)CCCP(=O)(O)O`
Result: 320

Ask: Queued: `CN(O)C(=O)CCCP(=O)(O)O`
Result: 410

Ask: Can you check `O=CN(O)CCCP(=O)(O)O` next?
Result: 510
